molecules and their reported cytotoxicity at 70.5 h
- measurement_description: Human HepG2 cell viability assay in 384 well format
- Type: toxicity, cell-based
- Set-up: dose 125 nL, time 70.5 hour; concentration not given beside the values
- condition_info: HepG2 cells, read-out: Inhibition
Write it as a number; the unit % goes unstated.

- molecule: "Cn1cc(N2CCC3(CCN(Cc4cccnc4)C3)C2=O)cn1 (stereo not drawn)"
  reported_endpoint: "cytotoxicity at 70.5 h"
  recorded_measurement: -17.1
- molecule: "COc1ccc(-c2n[nH]cc2CN2CCSCC2)c(OC)c1"
  reported_endpoint: "cytotoxicity at 70.5 h"
  recorded_measurement: -7.44
- molecule: "COCC(=O)Nc1cc(Br)cnc1OCC(F)(F)F"
  reported_endpoint: "cytotoxicity at 70.5 h"
  recorded_measurement: -11.8

*Q* Data request, read-out cytotoxicity at 70.5 h, for COc1ccc(C2OC(COc3ccccc3Br)=NN2C(C)=O)cc1 (stereo not drawn)
*A* -6.79

*Q* Which cytotoxicity at 70.5 h is listed for CC(C)NC(=O)CC1(Cn2cnnn2)CCCCC1 ?
*A* -22.1

*Q* Dear colleague, I am looking for the recorded cytotoxicity at 70.5 h of the following molecule: O=C1CCN(C(=O)CCc2cc(Br)cs2)CCN1
*A* -10.5

*Q* # get_value(readout='cytotoxicity at 70.5 h', item= c1ccc(Cc2cccc(C3CCCN3C3CCOCC3)n2)cc1 (stereo not drawn) )
*A* -13.2

*Q* Look up cytotoxicity at 70.5 h for this molecule: Cc1ccsc1CN(CCN(C)C)C(=O)c1ccc(C#N)nc1
*A* -8.67

*Q* Tell me the measured cytotoxicity at 70.5 h of CCCn1c(SCC(N)=O)nnc1-c1csc2c1CCCC2 , please.
*A* -9.81
